test system: KRas Q61H mutant; test: Ras GTP binding domain inhibition assay (Cy3-GTP/Cy5-GTP competition); parameters: species or system human; conditions: 20 μM; without SOS (Table 7A)
parameter measured: KRas Q61H mutant: % inh.

compound	result
CO[C@H]1C[C@@H](Nc2nc(-c3nccn3C)nc3sc(-c4cnn(C)c4)c(-c4ccccc4)c23)C1 [drawing 892]	D (76-100% inhibition)
CO[C@H]1CC[C@@H](Nc2nc(-c3nccn3C)nc3sc(-c4ccn(C(C)C)n4)c(C)c23)C1 [drawing 919]	D (76-100% inhibition)
COc1cccc(-c2sc3nc(-c4nccn4C)nc(NC4CCC(OC)C4)c3c2C)c1F (stereo not shown) [drawing 893]	C (51-75% inhibition)
CO[C@H]1CC[C@@H](Nc2nc(-c3nccn3C)nc(C(=O)N3CCc4c(O)cccc4C3)c2C)C1 [drawing 901]	B (26-50% inhibition)
CO[C@H]1CC[C@@H](Nc2nc(-c3nc(C)cn3C)nc3sc(-c4cccc5[nH]ncc45)c(C)c23)C1 [drawing 897]	B (26-50% inhibition)

Entry COc1cccc(-c2sc3nc(-c4nccn4C)nc(N[C@@H]4CC[C@H](OC)C4)c3c2-c2ccccc2)c1F [drawing 884] has what KRas Q61H mutant: % inh.? C (51-75% inhibition)

Entry COC1CCC(Nc2nc(-c3nccn3C)nc3sc(-c4cccc5[nH]ncc45)c(C)c23)C1 (stereo not shown) [drawing 895] has what KRas Q61H mutant: % inh.? B (26-50% inhibition)

Entry COC1CCC(Nc2nc(-c3nccn3C)nc3sc(-c4cccc5[nH]ncc45)c(-c4ccccc4)c23)C1 (stereo not shown) [drawing 888] has what KRas Q61H mutant: % inh.? C (51-75% inhibition)

// data source = patent US20250296938A1
